Could you please report measured viability at 24 h, 100 µmol/L for the items listed next?
# assayText: Viability of fibroblast cells, MTT assay
# Assay type: cell-based, Human
# conditionDescription: human, primary dermal fibroblast cells; 100 µmol/L, 24 h, MTT; ± 2; read-out: Viability of fibroblast cells
Residues, ends and D or L forms follow the SMILES beside them.
Numbers only, in %.

Batch lookup, viability at 24 h, 100 µmol/L per entry.
1. CCCCCCCCCCCCCCCC(=O)N[C@@H](CCCCN)C(=O)N[C@H](C(=O)N[C@H](C(=O)N[C@@H](CCCNC(=N)N)C(=O)N[C@@H](CO)C(N)=O)[C@@H](C)O)[C@@H](C)O [Peptide 16, Pal-Lys-Thr-Thr-Arg-Ser-NH2] (HELM PEPTIDE1{[CCCCCCCCCCCCCCCC(=O)[*:2]].K.T.T.R.S.[am]}$$$$V2.0)
2. C[C@@H](O)[C@H](NC(=O)[C@H](CCCCN)NC(=O)CCCCC1CCSS1)C(=O)N[C@H](C(=O)N[C@@H](CCCNC(=N)N)C(=O)N[C@@H](CO)C(=O)O)[C@@H](C)O (mixture of isomers) [Peptide 11, Lip-Lys-Thr-Thr-Arg-Ser-OH]

Result ::
1: 115; 2: 98
